Biological target: T1, recombinant fibronectin domain ED-B (His)6 (human, UniProt P02751 1266-1356)
T1 construct: domain: ED-B; Produced by standard procedures; immobilised on ELISA plates or on the BIAcore chip; also called recombinant ED-B; human ED-B
Test: SPR (BIAcore), ED-B immobilised on chip, Fab in flow
Property: Kd; scope: individual binders
Response body: numeric value in nM, unit text excluded.

Use the examples below as a reference point.
Value of Kd reported for the binder MOR02715 (Fab, V domains shown, HuCAL GOLD Fab, VH3/L2) VH: QVQLVESGGGLVQPGGSLRLSCAASGFTFSSYGMHWVRQAPGKGLEWVSVISSSGSYIYYADSVKGRFTISRDNSKNTLYLQMNSLRAEDTAVYYCARNKVGFDVWGQGTLVTVSS VL: DIALTQPASVSGSPGQSITISCTGTSSDGGGYNTVSWYQQHPGKAPKLMIYYVHKRPSGVSNRFSGSKSGNTASLTISGLQAEDEADYYCQAWDNQGMKYVFGGGTKLTVLG is 53.7

Kd reported for this binder MOR03069 (Fab, V domains shown, Fab, L-CDR3 derivative of MOR02619) VH: QVQLQESGPGLVKPGETLSLTCTVSGGSISSYYWSWIRQAPGKGLEWIGIGHWGSTQYNPSLKGRVTISVDTSKNQFSLKLSSVTAEDTAVYYCARFFDVWGQGTLVTVSS VL: DIVLTQPPSVSGAPGQRVTISCSGSSSNIGSNTVRWYQQLPGTAPKLLIYSNNKRPSGVPDRFSGSKSGTSASLAITGLQSEDEADYYCWTGMSYHFVFGGGTKLTVLG : 3.3

Consider the record given below.
Measured Kd, MOR03055 (Fab, V domains shown, Fab, L-CDR3 derivative of MOR02619) VH: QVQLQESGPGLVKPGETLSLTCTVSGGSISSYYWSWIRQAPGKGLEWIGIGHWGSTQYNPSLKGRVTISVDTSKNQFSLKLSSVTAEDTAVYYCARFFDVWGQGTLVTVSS VL: DIVLTQPPSVSGAPGQRVTISCSGSSSNIGSNTVRWYQQLPGTAPKLLIYSNNKRPSGVPDRFSGSKSGTSASLAITGLQSEDEADYYCQAWTRAHRYPVFGGGTKLTVLG : 3
